# Cond: rat, in vivo, sc, 50 mg/kg
e = 2'-O-(2-methoxyethyl) (MOE); d = 2'-deoxy (DNA)
The entries below are paired with their reported Platelets.
Value kind: Platelets (nL⁻¹)

{"columns": ["Substance", "Value kind", "Readout number"],
 "data": [
  ["ISIS 445505: 5-8-5 or 6-8-6 MOE microwalk gapmer (Table 44) (antisense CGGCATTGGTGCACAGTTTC; sugars from the 5' end e6 d8 e6, backbone and methylation of C not given here)", "Platelets", 1089],
  ["ISIS 445530: 5-8-5 or 6-8-6 MOE microwalk gapmer (Table 44) (antisense GCATTGGTGCACAGTTTC; sugars from the 5' end e5 d8 e5, backbone and methylation of C not given here)", "Platelets", 1249],
  ["ISIS 445498: 5-8-5 or 6-8-6 MOE microwalk gapmer (Table 44) (antisense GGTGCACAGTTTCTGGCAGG; sugars from the 5' end e6 d8 e6, backbone and methylation of C not given here)", "Platelets", 1061],
  ["ISIS 445509: 5-8-5 or 6-8-6 MOE microwalk gapmer (Table 44) (antisense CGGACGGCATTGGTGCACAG; sugars from the 5' end e6 d8 e6, backbone and methylation of C not given here)", "Platelets", 1115],
  ["ISIS 445504: 5-8-5 or 6-8-6 MOE microwalk gapmer (Table 44) (antisense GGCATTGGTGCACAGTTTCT; sugars from the 5' end e6 d8 e6, backbone and methylation of C not given here)", "Platelets", 776],
  ["ISIS 445513: 5-8-5 or 6-8-6 MOE microwalk gapmer (Table 44) (antisense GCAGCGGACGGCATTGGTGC; sugars from the 5' end e6 d8 e6, backbone and methylation of C not given here)", "Platelets", 1051]
]}
